Data provenance is the Human Domainome abundance scans (Beltran et al. 2025).

B1: Chromodomain-helicase-DNA-binding protein 7, residues 2564 to 2605; numbered along this chain, Q9P2D1 (parent)
chain: DPDTRIPVINLEDGTRLVGEDAPKNKDLVEWLKLHPTYTVDM

Variants of: B1
Experiment: abundance fitness (aPCA) (normalised: wild type 0, dead -1); higher = more abundant; growth selection in yeast, the domain comes from the species named
Conditions: Homo sapiens

{"mut": "T37I", "abundance fitness": -0.221}
{"mut": "R5K", "abundance fitness": 0.124}
{"mut": "K33V", "abundance fitness": -0.261}
{"mut": "V40C", "abundance fitness": -0.152}
{"mut": "K33I", "abundance fitness": -0.449}
{"mut": "L28N", "abundance fitness": -0.524}
{"mut": "V8K", "abundance fitness": -0.387}
{"mut": "L11D", "abundance fitness": 0.067}
{"mut": "D21C", "abundance fitness": -0.07}
{"mut": "A22N", "abundance fitness": -0.519}
{"mut": "E30Q", "abundance fitness": -0.187}
{"mut": "R5S", "abundance fitness": -0.303}
{"mut": "L17H", "abundance fitness": -0.095}
{"mut": "E30D", "abundance fitness": 0.008}
{"mut": "D41G", "abundance fitness": -0.335}
{"mut": "G19L", "abundance fitness": -0.518}
{"mut": "L17Y", "abundance fitness": -0.217}
{"mut": "D27G", "abundance fitness": -0.38}
{"mut": "G19N", "abundance fitness": -0.264}
{"mut": "G19D", "abundance fitness": -0.125}
{"mut": "D41I", "abundance fitness": -0.871}
{"mut": "T15K", "abundance fitness": 0.051}
